test-protocol: in vivo
particulars: CD-1 nu/nu, mouse, iv
reported-metric: MTD (mg/kg)
Your answer is read as mg/kg, so omit the unit and give the number.

Complete the entry with MTD for CC(C)=CCC/C(C)=C/CC/C(C)=C/CN1C(=O)c2cccc(O)c2Nc2c(O)cc(O)cc21
150

====

test-protocol: Pharmacokinetic profiles, plasma
Assay type: in vivo, female Crl: CD1 mice
particulars: female, Crl: CD1, mouse, ip, 30 mg/kg
reported-metric: AUC (µM·h)
Write the number in µM·h without appending the unit.

Please give measured AUC of the following entry: CC(C)=CCC/C(C)=C/CC/C(C)=C/CN1C(=O)c2cccc(O)c2Nc2c(O)cc(O)cc21
9.5
